In this section we review reported logP values for a set of compounds.
- PROTOCOL DETAILS: physchem
- TEST PARAMETERS: oil/water

| COMPOUND | logP |
| --- | --- |
| C[C@H](O)CCO | -2.37 |
| CCOC(C)=O [ETHYL ACETATE] | 0.4 |
| CC(O)C(C)O (configuration not stated) | -2.47 |
| CC(C)=O | -0.7 |
| CC1OC(C)OC(C)O1 (configuration not stated) | 0.28 |

What value of logP has been reported for the following compound? CCOC(N)=O
-1.13

// logP lookup, key: CCC(N)=O [PROPIONAMIDE]
-2.44

Name the reported logP value associated with the compound CCOCC
0.38

State the recorded logP for this entry: CC(=O)OCC(COC(C)=O)OC(C)=O
-0.36

Form field: reported logP of O=C1CCC(=O)N1 [SUCCINIMIDE]
-2.31

// query logP value for entry CCCC(N)=O [BUTYRAMIDE]
-2.02

So what's the measured logP for this one? CC(O)CO (configuration not stated)
-2.77

Quick one: logP of C1N2CN3CN1CN(C2)C3 ?
-3.68

I would be grateful if you could share the reported logP for CC(C)CC(N)=O [ISOVALERAMIDE] .
-1.64

Could you share which logP value was measured for CCCCC(=O)O ?
0.48

Recorded logP of COC(N)=O [METHYL CARBAMATE] , please.
-1.6

Which measured logP value corresponds to OCCCCCCO ?
-2.17

* * *

- PROTOCOL DETAILS: physchem
- TEST PARAMETERS: octanol/water
RESULT TYPE: logP
Response field accepts a number only; no unit should be typed.

| MOLECULE | logP |
| --- | --- |
| CNC(=O)Oc1ccc(C(C)=O)cc1 | 1.01 |
| COc1ccc(O)cc1 [MEQUINOL] | 1.34 |
| CNC(=O)Oc1ccc([N+](=O)[O-])cc1 [4-NITROPHENYL METHYLCARBAMATE] | 1.46 |
| O=C(O)COc1ccc(O)cc1 | 0.65 |

Please look up its logP: CNC(=O)Oc1cccc(C)c1 [METOLCARB]
1.7

Need logP of CNC(=O)Oc1cccc(OC)c1 , thanks.
1.3

Any idea what logP was measured for Cc1ccc(S(N)(=O)=O)cc1 [P-TOLUENESULFONAMIDE] ?
0.82

Consider the molecule CNC(=O)Oc1cccc(Br)c1 and give its measured logP.
2.25

Return reported logP; argument: CS(=O)(=O)c1cccc(OCC(=O)O)c1
0

What measured logP goes with Cc1ccc(OCC(=O)O)cc1 ?
1.78

Report logP for NS(=O)(=O)c1ccc(Br)cc1 please.
1.36

What value of logP has been recorded for this entry: O=C(O)COc1cccc(C(F)(F)F)c1
2.33

Quick one: logP for N#Cc1ccccc1 [BENZONITRILE] ?
1.56

Given the entry O=C(O)Cc1ccccc1 [PHENYLACETIC ACID] , report its measured logP.
1.41

Quick one: logP of CNC(=O)Oc1ccc(C(C)C)cc1 ?
2.8

Name the reported logP value associated with the molecule CNC(=O)Oc1cccc([N+](=O)[O-])c1
1.39

For CCc1cccc(OCC(=O)O)c1 , what is its reported logP?
2.23

// lookup logP for COc1cccc(O)c1 [1-hydroxy-3-methoxybenzene]
1.58
